The measurements presented in this section are drawn from patent US20220112288A1.

Target: T1, Rhesus macaque CD4-HIS (Acro Biosystems, Cat. CD4-C52H7) (rhesus macaque, UniProt P16003 26-390)
T1 construct: Bought reagent; also called Rhesus CD4; rhesus CD4-HIS; not shown: His tag
T1 sequence (P16003 26-390 limits assumed): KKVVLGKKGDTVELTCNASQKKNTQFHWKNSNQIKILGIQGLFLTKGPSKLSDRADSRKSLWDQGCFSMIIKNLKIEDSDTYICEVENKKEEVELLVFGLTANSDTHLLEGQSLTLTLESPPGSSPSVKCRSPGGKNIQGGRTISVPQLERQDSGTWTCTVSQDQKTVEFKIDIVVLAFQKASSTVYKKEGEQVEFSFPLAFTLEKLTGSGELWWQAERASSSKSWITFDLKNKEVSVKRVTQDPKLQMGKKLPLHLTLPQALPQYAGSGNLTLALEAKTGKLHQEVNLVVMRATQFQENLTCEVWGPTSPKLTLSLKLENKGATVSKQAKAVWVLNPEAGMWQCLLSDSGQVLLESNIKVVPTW
Assay: BLI Octet, mAb on anti-mouse Fc sensor, rhesus CD4-HIS 25-100 nM, 1:1 global fit;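 further: purified antibodies captured at 10 µg/mL, rhesus CD4 analyte run as a three-concentration serial dilution, irrelevant antibody as reference control, one kinetic constant set per antibody from global fitting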
Kd values, listed per item
Enter your answer as a number in nM; do not include the unit.

Here are 2 binders together with their reported answers.
- Binder: "75110_05E05A (antibody, V domains shown, Tested as antibody purified from AlivaMab Mouse hybridoma supernatant (captured by anti-mouse IgG Fc)) VH: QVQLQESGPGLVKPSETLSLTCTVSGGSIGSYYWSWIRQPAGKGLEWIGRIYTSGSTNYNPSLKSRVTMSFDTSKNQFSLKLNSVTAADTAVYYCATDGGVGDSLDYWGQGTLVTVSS VL: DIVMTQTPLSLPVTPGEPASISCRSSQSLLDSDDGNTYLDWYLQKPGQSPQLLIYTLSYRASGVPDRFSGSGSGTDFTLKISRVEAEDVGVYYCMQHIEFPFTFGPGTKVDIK"
  Result units: "nM"
  Kd: 2.3
- Binder: "75110_01H18A (antibody, V domains shown, Tested as antibody purified from AlivaMab Mouse hybridoma supernatant (captured by anti-mouse IgG Fc)) VH: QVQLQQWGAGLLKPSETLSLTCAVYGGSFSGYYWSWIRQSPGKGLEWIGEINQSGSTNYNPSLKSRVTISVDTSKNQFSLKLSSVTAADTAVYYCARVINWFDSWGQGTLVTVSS VL: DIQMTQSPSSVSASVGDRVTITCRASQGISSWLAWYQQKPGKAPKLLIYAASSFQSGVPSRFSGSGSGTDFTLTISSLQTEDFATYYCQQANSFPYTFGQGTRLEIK"
  Result units: "nM"
  Kd: 130

Could you now look at the following binder, please?
Q. Bench note: what Kd did 75110_02I16A (antibody, V domains shown, Tested as antibody purified from AlivaMab Mouse hybridoma supernatant (captured by anti-mouse IgG Fc)) VH: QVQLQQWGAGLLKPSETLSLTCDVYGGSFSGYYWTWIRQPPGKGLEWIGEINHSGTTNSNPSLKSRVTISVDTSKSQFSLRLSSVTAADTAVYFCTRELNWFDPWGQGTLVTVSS VL: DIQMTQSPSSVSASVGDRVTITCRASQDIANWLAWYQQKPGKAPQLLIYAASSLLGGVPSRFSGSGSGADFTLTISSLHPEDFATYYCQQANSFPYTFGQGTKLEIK show?
A. 37
